ASSAY_NOTES: Quantitative High-Throughput drug screen in 47 multiple myeloma cell lines against the NCATS MIPE library collection: Karpas620_DSMZ cell viability assay (AID 1918959); also: nearly all actives have a fitted effect of over 30% in size; also: potency is read from the fitted curve at half-maximal effect
CONDITION_LABEL: Karpas620 myeloma viability, CellTiter-Glo ATP luminescence, 48 h; series mostly up to 45.8 µM
Inconclusive results are not listed. The source made the active and inactive calls. Calls follow the shape of the dose curve; as a rule, active = well fitted cell-killing curve with a large enough effect; inconclusive = small, poorly fitted or top-dose-only effect, or effect the other way; inactive = no such curve, though single readings can be large or run the other way.
QUANTITY_KIND: Potency

Example compounds with recorded Potency:
OCc1ccc(-c2ccc(-c3ccc(CO)s3)o2)s1 | inactive
CCCn1c(=O)c2[nH]c(-c3cnn(Cc4cccc(C(F)(F)F)c4)c3)nc2n(CC)c1=O | inactive
CN(C)CC(C)(C)CNc1nn2c(-c3ccccc3)nnc2cc1C1CCC1 | 14.8 µM (active)
CNC(=O)c1nn(C)c2c1C(C)(C)Cc1cnc(Nc3ccc(N4CCN(C)CC4)cc3)nc1-2 | 4.69 µM (active)

Here is the next item to consider.
Field request: Potency | item: `Cc1c(C)n(Cc2ccc(-c3ccccc3C(=O)O)cc2)c2ccc(C(=O)N[C@@H](C)c3ccc([N+](=O)[O-])cc3)cc12` 0.0935 µM (active)

---

ASSAY_NOTES: Quantitative High-Throughput drug screen in 47 multiple myeloma cell lines against the NCATS MIPE library collection: MM1S_ATCC cell viability assay (AID 1918980); also: nearly all actives have a fitted effect of over 45% in size
CONDITION_LABEL: MM1S myeloma viability, CellTiter-Glo ATP luminescence, 48 h; series mostly up to 45.8 µM
Results filed as inconclusive are left out. The source made the active and inactive calls. The call rests on the fitted dose curve; in most records, active means well fitted cell-killing curve with a large enough effect; inconclusive means small, poorly fitted or top-dose-only effect, or effect the other way; inactive means no such curve, though single readings can be large or run the other way.
Can you answer with just one of these options? Yes (active), No (inactive)

// below: answered compounds
CC(C)(C)c1cc(NC(=O)Nc2ccc(-c3cn4c(n3)sc3cc(OCCN5CCOCC5)ccc34)cc2)no1 | No
CC(C)c1ccc(Cn2ccc3c4c(N)nc(NC5CC5)nc4ccc32)cc1 | Yes
Cc1cn2c(-c3cn[nH]c3)cnc2c(Nc2ccc(C(=O)N3CCNCC3)cc2F)n1 | Yes
C=C1C(=CC=C2CCCC3(C)[C@@H]([C@H](C)C=CC=CC(O)(CC)CC)CC[C@@H]23)C[C@@H](O)C[C@@H]1O (some centres undefined) | Yes
NC(=O)c1c(OCc2c(F)cc(Br)cc2F)nsc1NC(=O)NCCCCN1CCCC1 | Yes

Per the assay record, what outcome was assigned to `CNC(=O)c1cc(Oc2ccc(NC(=O)Nc3cc(C(C)(C)C)nn3-c3ccc4ncccc4c3)c(F)c2)ccn1` ? Yes

Per the assay record, what outcome was assigned to `CN1CC[C@@H](c2c(O)cc(O)c3c(=O)cc(-c4ccccc4Cl)oc23)[C@@H](O)C1` ? Yes

Per the assay record, what outcome was assigned to `OCCCNc1cc(-c2ccnc(Nc3cccc(Cl)c3)n2)ccn1` ? Yes

Per the assay record, what outcome was assigned to `CC(C)(O)c1cc2nc(-c3cnc(N)nc3)nc(N3CCOCC3)c2s1` ? Yes

---

ASSAY_NOTES: Cell Proliferation Assay against the HBL1 Cell Line (AID 651646);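 also: cells exposed to compound for 48 h before reading; 100% = DMSO and 0% = 9.2 µM bortezomib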
CONDITION_LABEL: HBL1 DLBCL cells; at 46.1 µM (top of the series)
QUANTITY_KIND: viability, percent of control (%)
Answer in %, number only, no unit symbol.

Example compounds with recorded viability, percent of control:
Cc1cnc(-c2cnc(NCCNc3ccc(C#N)cn3)nc2-c2ccc(Cl)cc2Cl)[nH]1 | 22.7
Cc1ccc(C(=O)Nc2cccc(C(F)(F)F)c2)cc1-c1ccc2nc(NCCN3CCOCC3)ncc2c1 | 0.88
CC1(O)CC(c2nc(-c3ccc4ccc(-c5ccccc5)nc4c3)c3c(N)nccn23)C1 (centres undefined) | 43
Nc1ccccc1NC(=O)c1ccc(CNC(=O)OCc2cccnc2)cc1 | 4.18
CNC(=O)c1cc(Oc2ccc(NC(=O)Nc3cc(C(C)(C)C)nn3-c3ccc4ncccc4c3)c(F)c2)ccn1 | 58.7

Field request: viability, percent of control | item: `CNc1nccc(-c2cccnc2Oc2cc(C(=O)Nc3cccc(C(F)(F)F)c3)ccc2C)n1` 25.3

Field request: viability, percent of control | item: `CN1CCN(c2cc(C(=O)Nc3ccc4c(c3)-c3c(c(C(N)=O)nn3-c3ccc(F)cc3)CC4)c(Cl)cn2)CC1` 0.345

Field request: viability, percent of control | item: `CCN1CCN(Cc2ccc(-c3cc4c(N[C@H](C)c5ccccc5)ncnc4[nH]3)cc2)CC1` 1.9

Field request: viability, percent of control | item: `COc1cc(OC2CCN(C)CC2)ccc1Nc1ncc2c(n1)n(C1CCCC1)c(=O)n2C` 38.2

Field request: viability, percent of control | item: `C[C@@]12O[C@@H](C[C@]1(O)CO)n1c3ccccc3c3c4c(c5c6ccccc6n2c5c31)CNC4=O` 3.21

Field request: viability, percent of control | item: `CC(C)(C)c1cc(NC(=O)Nc2ccc(-c3cn4c(n3)sc3cc(OCCN5CCOCC5)ccc34)cc2)no1` 30.7

Field request: viability, percent of control | item: CC(NCc1ccc2c(c1)nc(NC(=O)c1ccc(-c3cn[nH]c3)s1)n2CC(C)(C)O)C(C)(C)C (centres undefined) 1.76
